Biological target: T1, recombinant human OX40-Fc (human, UniProt P43489 29-214)
T1 construct: also called rh-OX40-Fc; human OX40 hFC (R & D systems)
T1 sequence: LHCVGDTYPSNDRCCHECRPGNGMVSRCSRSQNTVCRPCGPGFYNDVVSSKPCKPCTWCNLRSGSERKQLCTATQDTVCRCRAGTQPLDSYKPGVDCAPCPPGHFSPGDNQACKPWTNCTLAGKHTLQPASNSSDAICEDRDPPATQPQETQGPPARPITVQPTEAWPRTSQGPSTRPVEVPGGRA
Experiment: ELISA, OX40-Fc coated, VHH at 0.0128 nM
Each entry below carries its recorded OD450.

Binder: pgXX88-81 (VHH, not shown: small tags and cut ends) VHH: EVQLVESGGGLAQPGSSLRLSCTASGTVFSILSATWFRQAPGKAHEARELVAFISSDGVSMHADSVKGRFTISRDNAKSTVYLQMDNLQPEDTAAYYCKLSNSMMGMEYWGRGTQVTVSS
Observed value: 0.06
//
Binder: pgXX88-60 (VHH, not shown: small tags and cut ends) VHH: EVQLVESGGGLAQPGGSLRLSCAASGFTFSNYAMGWYRQAPGKEREFVAAIDWSTNALLYGDSVKGRFTISRDNAKNTVFLQMSGLKPEDTALYYCAADRAYHTVVLGPPEGMDYWGKGTQVTVSS
Observed value: 0.057
//
Binder: pgXX88-SZ-15 (VHH, not shown: small tags and cut ends) VHH: QVQLVESGGGLVQPGGSLRLSCSPSEGAFKMLTTGWFRQVLGKEREFVSAISWGGGATYYADSVKGRFTVSRDNAKNTVYLQMNSLKPEDTAVYYCAVDTGNGVATNIRSQSRYDYWGQGTQVTVSS
Observed value: 0.068

For the next question, use this binder.
Prompt: What does the record list as OD450 for pgXX88-2 (VHH, not shown: small tags and cut ends) VHH: EVQLVESGGGLVQPGGSLRLSCAASGFAFGDIPMMWVRQAPGKGREWVSSISADSATQSYADSVQDRFTISRDNAKNTLYLEMHILKPEDTAVYYCATTDRPPPGQGTQVTVSS ?
Completion: 0.077
